# Tested on: CRL-7250
# test: Cytotoxic Profiling of Annotated Libraries Using Quantitative High-Throughput Screening (AID 1296008); further: on the % scale 0 is the no-effect control and ±100 the full control effect; nearly all actives have a fitted effect of over 60% in size
# condition_info: Five cell lines viability, CellTiter-Glo ATP luminescence, 48-72 h; stronger effect = lower value
Inconclusive results are not listed. Activity calls are given as the source filed them. The call rests on the fitted dose curve; in most records, active means well fitted inhibition curve with a large enough effect; inconclusive means small, poorly fitted or top-dose-only effect; inactive means flat fitted curve, though single readings scatter.
reported_endpoint: max response

// field: max response; key: OC(CN1CCN(c2cccc(Cl)c2)CC1)C(c1ccccc1)c1ccccc1 (stereo not drawn) ; value = -4.87% (inactive)

Short answer for `CCOC(=O)C1=C[C@@H](OC(CC)CC)[C@H](NC(C)=O)[C@@H](N)C1` : max response was 0.667% (inactive)

Quick note, max response for `CN(C)[C@@H](CCOc1cccc2ccccc12)c1ccccc1` landed at -9.42% (inactive)

====

# test: MultiTox-Fluor Cytotoxicity Assay - LYMP1-001 - Dead Cells (AID 946);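 further: cells exposed to compound for 16 h; 0% = DMSO and 100% = tetraoctylammonium bromide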
# condition_info: LYMP1-001 lymphoblastoid cells, dead-cell protease fluorescence; series mostly up to 92.2 µM
Inconclusive results are not listed. The source made the active and inactive calls. The call rests on the fitted dose curve; in most records, active means well fitted cell-killing curve with a large enough effect; inconclusive means small, poorly fitted or top-dose-only effect, or effect the other way; inactive means flat fitted curve, though single readings scatter.

{"compound": "Cc1ccc(C)c(OCCCC(C)(C)C(=O)O)c1", "outcome": "inactive"}
{"compound": "CCc1nc(N)nc(N)c1-c1ccc(Cl)cc1", "outcome": "inactive"}
{"compound": "CCCCC(CC)COC(=O)C(C#N)=C(c1ccccc1)c1ccccc1 (stereo not drawn)", "outcome": "inactive"}

====

# test: Quantitative High-Throughput drug screen in 47 multiple myeloma cell lines against the NCATS MIPE library collection: KMS28PE_JCRB cell viability assay (AID 1918983); further: nearly all actives have a fitted effect of over 35% in size
# condition_info: KMS28PE multiple myeloma viability, CellTiter-Glo ATP, 48 h; series mostly up to 45.8 µM
Records with an inconclusive call do not appear. Active and inactive are the calls of the source. The call rests on the fitted dose curve; in most records, active means well fitted cell-killing curve with a large enough effect; inconclusive means small, poorly fitted or top-dose-only effect, or effect the other way; inactive means no such curve, though single readings can be large or run the other way.
Select the correct class. Options are 1 (yes) = active, 0 (no) = inactive and nothing else.

Hi, do you know how `CC(C)(S)[C@@H](N)C(=O)O` came out in this test?
0 (no)

Recorded test outcome, item `Nc1cc(C(Cl)=C(Cl)Cl)c(S(N)(=O)=O)cc1S(N)(=O)=O`
0 (no)

What did the test return for `CC(C)Oc1ccc2c(=O)c(-c3ccccc3)coc2c1` ?
1 (yes)

I would be grateful if you could indicate the recorded call for `C[C@H](Cc1ccc(O)c(O)c1)[C@@H](C)Cc1ccc(O)c(O)c1` .
0 (no)

Each compound tested received a call. Report the one for COc1cc2nc(N3CCN(C(=O)C4CCCO4)CC3)nc(N)c2cc1OC (configuration not stated) .
0 (no)

Look up the recorded call for `Nc1nc(OCc2ccccc2)c2[nH]cnc2n1` in this test.
0 (no)

Would you mind telling me which call this test gave `Cc1cccc(-c2[nH]ncc2-c2ccc3ncccc3n2)n1` ?
0 (no)

Short answer needed: outcome of this test for `Nc1ccc(S(N)(=O)=O)cc1` ?
0 (no)

# lookup: test call for `Cc1ccc(C)c(OCCCC(C)(C)C(=O)O)c1`
0 (no)

For this compound, state the assay outcome: `O=C(O)c1cccc(-c2noc(-c3ccccc3F)n2)c1`
1 (yes)

# outcome recorded in this test, key = O=C(CS(=O)Cc1ccco1)NCC=CCOc1cc(CN2CCCCC2)ccn1 (configuration not stated)
0 (no)

Please indicate how the test categorized `CN(C)c1ccc2nc3ccc(=[N+](C)C)cc-3sc2c1` .
1 (yes)

====

# target_entity: Luciferin 4-monooxygenase (Photinus pyralis)
# test: Primary firefly luciferase (FLuc) qHTS assay for identification of artifact compounds. (AID 1845220); further: nearly all actives have a fitted effect of over 60% in size
# condition_info: purified firefly luciferase, luminescence, 5 min; series mostly up to 54.1 µM
The source made the active and inactive calls. The call rests on the fitted dose curve; in most records, active means well fitted inhibition curve with a large enough effect; inconclusive means small, poorly fitted or top-dose-only effect; inactive means flat fitted curve, though single readings scatter.
// classify into TRUE for active, FALSE for inactive

Hi team, can someone confirm the assay call for CN(C)CCCC1(c2ccc(F)cc2)OCc2cc(C#N)ccc21 (stereo not drawn) ?
FALSE

Which outcome was entered for the compound `O=C(O)c1cccc(-c2noc(-c3ccccc3F)n2)c1` in this test?
TRUE

Tell me the recorded outcome of this test for `COc1ccccc1N1CCN(CCN(C(=O)C2CCCCC2)c2ccccn2)CC1` .
FALSE

Dear colleague, could you share the recorded outcome for `CN(c1nccc(=O)[nH]1)C1CCN(c2nc3ccccc3n2Cc2ccc(F)cc2)CC1` when you have a moment?
FALSE

Which outcome was assigned to `CC(C)C[C@H](NC(=O)[C@H](Cc1ccccc1)NC(=O)c1cnccn1)B(O)O` in this test?
FALSE

Field: outcome | Entry: COc1ccc(C2(C#N)CCC(C(=O)O)CC2)cc1OC1CCCC1 (stereo not drawn)
FALSE

State the result this test recorded for `CC(=O)NC[C@H]1CN(c2ccc(N3CCOCC3)c(F)c2)C(=O)O1` .
FALSE

Fill in: this test's call for `C=C(c1ccc(C(=O)O)cc1)c1cc2c(cc1C)C(C)(C)CCC2(C)C` is ___
FALSE

The reported measurements were obtained from PubChem BioAssay (NCATS).
